Experiment: Blood:plasma distribution ratio
Type: in vitro ADME
Conditions: blood and plasma
Measure name: blood plasma ratio
// print number alone

What does the record list as blood plasma ratio for C[C@H]1CN(C[C@H](Cc2ccccc2)C(=O)NCC(=O)O)CC[C@@]1(C)c1cccc(O)c1 [Alvimopan, dihydrate] ?
0.68
